List of inhibition of SARS-CoV-2 cytopathic effect values.
# System: Vero E6 infected with SARS-CoV-2
# Procedure Summary: inhibition of SARS-CoV-2 cytopathic effect; higher = more antiviral protection, active = above 15
# Experimental Context: 10000 nM; 48 h
# number only, unit % dropped from output

Previously resolved entries follow.
INSERT INTO assay_data (compound, unit_abbreviation, measured_value) VALUES
  ('CC(=O)NCCCCCC(=O)O [acexamic-acid]', '%', 0.09),
  ('C[C@H]1C[C@@H]2[C@H]([C@@H](O)C[C@@]3(C)[C@H]2CC[C@]3(O)C(=O)COC(=O)CCC(=O)O)[C@@]2(C)C=CC(=O)C=C12 [methylprednisolone-sodium-succinate]', '%', -2.89);

QUERY: Quick check: inhibition of SARS-CoV-2 cytopathic effect of Cc1cc(Nc2ncnc3ccc(NC4=NC(C)(C)CO4)cc23)ccc1Oc1ccn2ncnc2c1 [tucatinib] ?
RESULT: -12.7

QUERY: Quick check: inhibition of SARS-CoV-2 cytopathic effect of CCN(CC)CCCCC1CCN(CC(=O)N2c3ccccc3C(=O)Nc3cccnc32)CC1 ?
RESULT: -4.44

QUERY: Quick check: inhibition of SARS-CoV-2 cytopathic effect of COc1cccc(-c2cc(=O)c3ccccc3o2)c1N ?
RESULT: -5.22

QUERY: Quick check: inhibition of SARS-CoV-2 cytopathic effect of CSc1ccc2c(c1)[C@H](N1CCN(C)CC1)Cc1ccccc1S2 (racemic) [metitepine] ?
RESULT: 16.2

QUERY: Quick check: inhibition of SARS-CoV-2 cytopathic effect of CC(C)(C)CC(C)(C)c1ccc(O)c(Cc2ccc(Cl)cc2Cl)c1 [clofoctol] ?
RESULT: -0.97

----------
# Test system: Vero E6 infected with SARS-CoV-2
# Procedure Summary: SARS-CoV-2 infection rate relative to infected DMSO; higher = more infection, active = 60 or less
# Experimental Context: 24 h
List of SARS-CoV-2 infection rate values.

Previously resolved entries follow.
INSERT INTO results (compound, quantity_kind, measured_value) VALUES
  ('O=C(O)[C@H]1CN(C/C=C/P(=O)(O)O)CCN1 [midafotel] (10 µM)', 'SARS-CoV-2 infection rate', '89% (inactive)'),
  ('O=C(O)c1cc(N2N=C(C(F)(F)F)/C(=C/c3ccc(-c4ccccc4)o3)C2=O)ccc1Cl (10 µM)', 'SARS-CoV-2 infection rate', '97% (inactive)'),
  ('CN1CCC(=C2c3ccccc3CC(=O)c3sccc32)CC1 [ketotifen] (10 µM)', 'SARS-CoV-2 infection rate', '101% (inactive)'),
  ('Cc1[nH]cnc1CN1CCc2c(c3ccccc3n2C)C1=O [alosetron] (10 µM)', 'SARS-CoV-2 infection rate', '98% (inactive)'),
  ('CC/C(=C(/CC)c1ccc(O)cc1)c1ccc(O)cc1 [diethylstilbestrol] (10 µM)', 'SARS-CoV-2 infection rate', '102% (inactive)');

QUERY: Give SARS-CoV-2 infection rate (Vero E6 infected with SARS-CoV-2) of the following compound: CCOC(=O)n1ccn(C)c1=S [carbimazole] (10 µM)
RESULT: 99% (inactive)

QUERY: Give SARS-CoV-2 infection rate (Vero E6 infected with SARS-CoV-2) of the following compound: c1ccc(CCNc2nc(-c3ccccc3)cs2)cc1 [fanetizole] (10 µM)
RESULT: 99.5% (inactive)

QUERY: Give SARS-CoV-2 infection rate (Vero E6 infected with SARS-CoV-2) of the following compound: c1ccc(-c2ccc(C(c3ccccc3)n3ccnc3)cc2)cc1 (configuration not stated) [bifonazole] (10 µM)
RESULT: 79% (inactive)

QUERY: Give SARS-CoV-2 infection rate (Vero E6 infected with SARS-CoV-2) of the following compound: c1ccc([C@H]2CNCc3ccccc32)cc1 [4-phenyl-1,2,3,4-tetrahydroisoquinoline] (10 µM)
RESULT: 114% (inactive)

QUERY: Give SARS-CoV-2 infection rate (Vero E6 infected with SARS-CoV-2) of the following compound: Cc1c(C)c2c(c(C)c1O)CCC(C)(C(=O)O)O2 (configuration not stated) [trolox] (0.833333 µM)
RESULT: 98.5% (inactive)

meta.source: the supplement of paper PMC13380429
